We begin with a simple list: items and their reported pIC50.
system: Plasmodium falciparum; assay: Antiplasmodial activity against chloroquine-resistant Plasmodium falciparum K1 infected in human O+erythrocytes after 72 hrs by lactate dehydrogenase assay; assay type: functional, cell-based; details: K1, 72 h
Keep in mind that pIC50 stands for -log10 of concentration in molar terms.

Look over these answered cases.
CCC(C)[C@@H]1NC(=O)[C@@H]2[C@H](CCN2C(=O)[C@H](Cc2c[nH]c3ccccc23)N(C)C)Oc2ccc(OC)c(c2)/C=C\NC1=O (stereo not given in full); 5.49
CCC(C)[C@@H]1NC(=O)[C@@H]2[C@H](CCN2C(=O)[C@H](Cc2c[nH]c3ccccc23)N(C)C)Oc2ccc(O)c(c2)/C=C\NC1=O (stereo not given in full); 5.15
CCC(C)[C@@H]1NC(=O)[C@@H]2[C@H](CCN2C(=O)[C@H](Cc2c[nH]c3ccccc23)N(C)C)Oc2ccc(cc2)/C=C\NC1=O (stereo not given in full); 4.87

Turning to the following molecule.
Which pIC50 value belongs to O=C1N/C=C\c2ccc(cc2)O[C@@H](c2ccccc2)[C@H](NC(=O)[C@@H]2CCCN2C(=O)/C=C/c2ccccc2)C(=O)N[C@H]1C(O)c1ccccc1 (stereo not given in full) ?
5.13
